Parameter log10 EC50: see the listing below.
- System: C8166
- assay name: Compound was tested for effective concentration against C8166 cell line
- Assay type: functional, cell-based
- assay conditions: Homo sapiens
readout type: log10 EC50 (log10 of the value in nM)

molecule: CCNC(=O)C(NC(=O)Cc1ccccc1)[C@@H]1N[C@@H](C(=O)NCC(O)CN2C[C@H]3CCCC[C@H]3C[C@H]2C(=O)NC(C)(C)C)C(C)(C)S1 (stereo partly specified)
log10 EC50: 2.87
//
molecule: CC(C)(C)NC(=O)[C@@H]1C[C@@H]2CCCC[C@@H]2CN1C[C@@H](O)CNC(=O)[C@@H]1N[C@@H](C(NC(=O)Cc2ccccc2)C(N)=O)SC1(C)C (stereo partly specified)
log10 EC50: 2.08
//
molecule: CC(C)(C)NC(=O)[C@@H]1C[C@@H]2CCCC[C@@H]2CN1CC(O)CNC(=O)[C@@H]1N[C@@H](C(NC(=O)Cc2ccccc2)C(=O)NCCNC(=O)OC(C)(C)C)SC1(C)C (stereo partly specified)
log10 EC50: 2.00
//
molecule: CC(C)(C)NC(=O)[C@@H]1C[C@@H]2CCCC[C@@H]2CN1C[C@@H](O)CNC(=O)[C@@H]1N[C@@H](C(NC(=O)Cc2ccccc2)C(=O)NCc2ccccc2)SC1(C)C (stereo partly specified)
log10 EC50: 1.70
//
molecule: CC(C)(C)NC(=O)[C@@H]1C[C@@H]2CCCC[C@@H]2CN1C[C@@H](O)[C@H](Cc1ccccc1)NC(=O)[C@H](CC(N)=O)NC(=O)c1ccc2ccccc2n1
log10 EC50: 0.30
//
molecule: CN(C)c1ccc(CNC(=O)C(NC(=O)Cc2ccccc2)[C@@H]2N[C@@H](C(=O)NC[C@H](O)CN3C[C@H]4CCCC[C@H]4C[C@H]3C(=O)NC(C)(C)C)C(C)(C)S2)cc1 (stereo partly specified)
log10 EC50: 2.43
